molecular target: Amine oxidase [flavin-containing] A (Homo sapiens, UniProt P21397); assay: biochemical
Sequence (P21397 whole entry): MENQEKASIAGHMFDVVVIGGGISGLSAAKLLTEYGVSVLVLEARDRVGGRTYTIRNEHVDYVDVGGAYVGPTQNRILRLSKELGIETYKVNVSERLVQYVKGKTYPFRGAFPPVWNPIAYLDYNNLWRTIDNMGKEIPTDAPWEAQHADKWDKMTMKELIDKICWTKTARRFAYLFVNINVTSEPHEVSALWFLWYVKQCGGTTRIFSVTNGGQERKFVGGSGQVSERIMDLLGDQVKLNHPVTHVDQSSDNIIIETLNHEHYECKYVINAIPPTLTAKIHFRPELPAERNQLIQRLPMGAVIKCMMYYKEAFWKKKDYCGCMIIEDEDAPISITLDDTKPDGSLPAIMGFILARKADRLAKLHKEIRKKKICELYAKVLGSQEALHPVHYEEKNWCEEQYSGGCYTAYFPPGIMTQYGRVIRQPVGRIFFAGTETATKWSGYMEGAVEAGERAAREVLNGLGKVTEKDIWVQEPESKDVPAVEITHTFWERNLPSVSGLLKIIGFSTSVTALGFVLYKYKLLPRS
Listed here are molecules together with their documented IC50.
readout: IC50 (µM)

{"molecule": "CC1CCC/C(=N/Nc2nc(-c3ccc(Cl)cc3)cs2)C1 (centres undefined)", "observedResult": 23.1}
{"molecule": "COc1ccc(-c2csc(N/N=C3/CCC[C@@H](C)C3)n2)cc1", "observedResult": 4.26}
{"molecule": "CC1CCC/C(=N/Nc2nc(-c3ccc(Cl)cc3Cl)cs2)C1 (centres undefined)", "observedResult": 43.8}
{"molecule": "C[C@@H]1CCC/C(=N/Nc2nc(-c3ccc(C#N)cc3)cs2)C1", "observedResult": 21.9}
{"molecule": "CC1CCC/C(=N/Nc2nc(-c3ccc(C#N)cc3)cs2)C1 (centres undefined)", "observedResult": 20.6}
{"molecule": "CC1CCC/C(=N/Nc2nc(-c3ccccc3)cs2)C1 (centres undefined)", "observedResult": 37.8}
{"molecule": "C[C@@H]1CCC/C(=N/Nc2nc(-c3ccc(Cl)cc3)cs2)C1", "observedResult": 22.8}
{"molecule": "C[C@@H]1CCC/C(=N/Nc2nc(-c3ccccc3)cs2)C1", "observedResult": 38.6}
{"molecule": "C[C@@H]1CCC/C(=N/Nc2nc(-c3ccc(Cl)cc3Cl)cs2)C1", "observedResult": 40.6}
